meta.source: patent US8809372B2

Below, each entry is listed with its recorded pIC50.
# target desc: rat CYP17 (rat testicular microsomes) (Rattus norvegicus)
# Sequence (P11715 1-507): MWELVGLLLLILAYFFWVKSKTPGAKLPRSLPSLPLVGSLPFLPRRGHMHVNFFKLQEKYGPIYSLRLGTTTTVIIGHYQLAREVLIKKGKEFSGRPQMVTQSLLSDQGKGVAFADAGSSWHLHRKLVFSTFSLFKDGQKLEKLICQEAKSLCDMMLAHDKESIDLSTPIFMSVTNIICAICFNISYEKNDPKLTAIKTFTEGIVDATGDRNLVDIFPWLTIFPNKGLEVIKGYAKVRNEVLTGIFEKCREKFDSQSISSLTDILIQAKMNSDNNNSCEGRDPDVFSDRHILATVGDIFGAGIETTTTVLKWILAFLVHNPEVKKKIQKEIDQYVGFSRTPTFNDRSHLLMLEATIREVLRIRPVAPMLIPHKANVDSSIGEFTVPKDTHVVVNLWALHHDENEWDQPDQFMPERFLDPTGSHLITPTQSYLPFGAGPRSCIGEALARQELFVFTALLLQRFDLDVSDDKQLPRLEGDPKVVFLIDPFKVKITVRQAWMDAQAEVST
pIC50: −log10 of the molar value.

[
  {
    "molecule": "CC(C)CC(O)(c1ccncc1)c1cnc(-c2ccc(F)cc2)s1 (stereo not shown) [Example 47]",
    "result": "> 7.30"
  },
  {
    "molecule": "CC(O)(c1ccncc1)c1cnc(-c2ccc(F)cc2)s1 (single isomer, unassigned) [Example 9]",
    "result": "> 7.30"
  },
  {
    "molecule": "CC(O)(c1ccncc1)c1nc(-c2ccc(F)cc2)no1 (single isomer, unassigned; (-)) [Example 35]",
    "result": "> 7.30"
  },
  {
    "molecule": "COc1ccc(-c2ccc(C(C)(O)c3ccncc3)nc2)cc1 (single isomer, unassigned) [Example 2]",
    "result": "> 7.30"
  },
  {
    "molecule": "CC(O)(c1ccncc1)c1noc(-c2ccc(F)cc2)n1 (stereo not shown) [Example 29]",
    "result": "> 7.30"
  }
]

Exercise: I have this molecule here, CC(O)(c1ccncc1)c1cnc(-c2cncnc2)s1 (stereo not shown) [Example 64] , and I need its recorded pIC50.
Solution: > 7.30

Exercise: I have this molecule here, OC1(c2cnc(-c3ccc(F)cc3)s2)CCc2cnccc21 (stereo not shown) [Example 59] , and I need its recorded pIC50.
Solution: 6.70 to 7.30

Exercise: I have this molecule here, COc1ccc(-c2ccc(C(C)(O)c3ccncc3)nc2)cc1 (racemic) [Example 1] , and I need its recorded pIC50.
Solution: > 7.30

Exercise: I have this molecule here, Cn1cc(-c2ccc(C(C)(O)c3ccncc3)s2)ccc1=O (single isomer, unassigned; (-)) [Example 17] , and I need its recorded pIC50.
Solution: > 7.30

Exercise: I have this molecule here, CCC(O)(c1ccncc1)c1cnc(-c2cn[nH]c2)s1 (stereo not shown) [Example 18] , and I need its recorded pIC50.
Solution: > 7.30

Exercise: I have this molecule here, CC(O)(c1ccncc1)c1ncc(-c2ccc(F)cc2)s1 (stereo not shown) [Example 14] , and I need its recorded pIC50.
Solution: > 7.30

Exercise: I have this molecule here, CC(O)(c1ccncc1)c1cc(-c2ccc(F)cc2)no1 (stereo not shown) [Example 32] , and I need its recorded pIC50.
Solution: > 7.30

Exercise: I have this molecule here, CCC(O)(c1ccncc1)c1nnc(-c2ccc(F)cc2)s1 (stereo not shown) [Example 21] , and I need its recorded pIC50.
Solution: > 7.30

Exercise: I have this molecule here, Cn1cc(-c2ccc(C(C)(O)c3ccncc3)s2)ccc1=O (single isomer, unassigned; (+)) [Example 16] , and I need its recorded pIC50.
Solution: 6.70 to 7.30

Exercise: I have this molecule here, CC(O)(c1ccncc1)c1ccc(-c2ccc(C#N)cc2)cn1 (stereo not shown) [Example 10] , and I need its recorded pIC50.
Solution: > 7.30

Exercise: I have this molecule here, CC(=O)OC(C)(c1ccncc1)c1cnc(-c2ccc(F)cc2)s1 (stereo not shown) [Example 65] , and I need its recorded pIC50.
Solution: > 7.30
